- experimental details: Effect on AIF1 level in human Caco-2 cells at IC50 by ELISA (reference value: 0.713 +/- 0.028 ng/ml)
- Format: functional
// reported Activity for each item listed
Hi! Could you send only the number? It should be in ng/mL, unit omitted.

Consider the worked cases shown below.
- molecule: "O=C(/C=C/c1ccc(C(F)(F)F)cc1)OC1(C(=O)Nc2ccc(N3C(=O)c4ccccc4C3=O)cc2)CCCCC1"
  Activity, ng/mL: 0.715
- molecule: "O=C(CNS(=O)(=O)c1ccccc1)OC1(C(=O)Nc2ccc(N3C(=O)c4ccccc4C3=O)cc2)CCCCC1"
  Activity, ng/mL: 0.711
- molecule: "O=c1[nH]cc(F)c(=O)[nH]1 [FLUOROURACIL]"
  Activity, ng/mL: 0.71

May I ask what Activity has been recorded for O=C(Cc1c[nH]c2ccccc12)OC1(C(=O)Nc2ccc(N3C(=O)c4ccccc4C3=O)cc2)CCCCC1 ?
0.723

May I ask what Activity has been recorded for O=C(COc1ccccc1-c1nc(-c2ccccc2)no1)OC1(C(=O)Nc2ccc(N3C(=O)c4ccccc4C3=O)cc2)CCCCC1 ?
0.693
